Test: qHTS assay to identify small molecule agonists of the constitutive androstane receptor (CAR) signaling pathway - cell viability counter screen (AID 1224836); note: nearly all actives have a fitted effect of over 45% in size
Conditions: HepG2-CYP2B6-hCAR viability, CellTiter-Fluor, 23 h, PK11195 added to every well; series mostly up to 92.4 µM
Records with an inconclusive call do not appear. Active and inactive are the calls of the source. Calls come from the whole dose curve; as a rule, active = well fitted cell-killing curve with a large enough effect in the repeat runs; inconclusive = weak or mixed curves, or effect the other way; inactive = flat fitted curve, though single readings scatter.
Answer with one of the outcomes given here: yes (1) = active, no (0) = inactive

Solved cases (6 shown):
compound=CCOC(=O)c1ccccc1N class_name="no (0)"
compound=C[N+](C)(C)CC(=O)O class_name="no (0)"
compound=O=C(O)c1nn(Cc2ccc(Cl)cc2Cl)c2ccccc12 class_name="no (0)"
compound=N#CC(c1ccccc1)c1ccccc1 class_name="no (0)"
compound=O=C(O)CF class_name="no (0)"
compound=COP(=S)(OC)SCn1nnc2ccccc2c1=O class_name="no (0)"

What call does the record list for `[Cl-].[Cl-].[Cl-].[Fe+3]` ? no (0)

For CCCCC(C#N)(Cn1cncn1)c1ccc(Cl)cc1 (centres undefined) , what call appears in the results of this test? no (0)

Hi, sorry to bother you, what did the test record for `Nc1ccc2ccccc2c1` ? no (0)

Name the outcome recorded for `O=NN(c1ccccc1)c1ccccc1` in the assay. no (0)

Tell me the recorded outcome of this test for `ClCc1ccccn1` . no (0)

====

Assay: qHTS assay to identify small molecule agonists of the peroxisome proliferator-activated receptor delta (PPARd) signaling pathway - cell viability counter screen (AID 743211); note: nearly all actives have a fitted effect of over 55% in size
Details: PPARd-bla HEK293H viability, CellTiter-Glo luminescence, 17 h; series mostly up to 62.6 µM
Records with an inconclusive call do not appear. The source made the active and inactive calls. Calls follow the shape of the dose curve; as a rule, active = well fitted cell-killing curve with a large enough effect in the repeat runs; inconclusive = weak or mixed curves; inactive = no such curve, though single readings can be large or run the other way.
Entry note: the call must match one of TRUE = active, FALSE = inactive

// known answers, use as guide
compound=O=C(O)CF class_name=FALSE
compound=C=C(C)C#N class_name=FALSE
compound=ClCc1ccccn1 class_name=FALSE
compound=COc1ccc(O)c(C(C)(C)C)c1 class_name=FALSE
compound=CCCCCCCCCc1ccc(O)cc1 class_name=FALSE
compound=CN(C)c1nc(=O)n(C2CCCCC2)c(=O)n1C class_name=FALSE
compound=COC(=O)Nc1nc2ccccc2[nH]1 class_name=FALSE
compound=C[N+](C)(C)CC(=O)[O-] class_name=FALSE
compound=CCCCSP(=O)(SCCCC)SCCCC class_name=FALSE
compound="CC1(C)C(C(=O)OC(C#N)c2cccc(Oc3ccccc3)c2)C1(C)C (stereo not given)" class_name=FALSE

Called result for CC(O)CN(CC(C)O)CC(C)O (stereo not given) FALSE

Check the results log: what was the call for `CC[n+]1c(-c2ccccc2)c2cc(N)ccc2c2ccc(N)cc21` ? TRUE

For this compound, state the assay outcome: `C[N+](C)(C)C` FALSE

Which result was noted for this compound in the test: `COP(=S)(OC)SCn1nnc2ccccc2c1=O` FALSE

Hi team, can someone confirm the assay call for COP(=O)(NC(C)=O)SC (stereo not given) ? FALSE

====

Assay: Caspase-3/7 induction in HepG2 cells by small molecules, qHTS assay (AID 1346978); note: nearly all actives have a fitted effect of over 15% in size
Details: HepG2 caspase-3/7 activation, Caspase-Glo luminescence, 17 h; series mostly up to 92.4 µM
Records with an inconclusive call do not appear. The source made the active and inactive calls. Calls follow the shape of the dose curve; as a rule, active = well fitted activation curve with a large enough effect in the repeat runs; inconclusive = weak or mixed curves; inactive = flat fitted curve, though single readings scatter.
Please state which outcome applies, choosing from active, inactive

Solved cases below.
compound=CCCCOC(=O)COC(=O)c1ccccc1C(=O)OCCCC class_name=inactive
compound=NC(=O)CN1CCCC1=O class_name=inactive
compound=CCOP(=S)(OCC)OP(=S)(OCC)OCC class_name=inactive
compound=Cn1c(-c2ccccc2)cc(-c2ccccc2)[n+]1C class_name=inactive
compound=CN(C)P(=O)(N(C)C)N(C)C class_name=inactive
compound=O=[N+]([O-])c1ccc(Cl)c([N+](=O)[O-])c1 class_name=inactive

What is the recorded call for this compound in the test? CCCCCCCCCC(CC)c1ccc(S(=O)(=O)O)cc1 (centres undefined) inactive

State the result this test recorded for `Oc1ccc(Cl)cc1Cc1ccccc1` . active

Hey, what did the test say about `C[N+](C)(C)C` ? inactive

====

Experiment: qHTS assay to identify small molecule agonists of the TGF-beta/Smad signaling pathway - cell viability counter screen (AID 1346829); note: top concentration of the series differs between compounds; nearly all actives have a fitted effect of over 45% in size
Details: SBE-bla HEK293T viability, CellTiter-Glo luminescence, 5 h; series mostly up to 76.8 µM
Records with an inconclusive call do not appear. Active and inactive are the calls of the source. Calls follow the shape of the dose curve; as a rule, active = well fitted cell-killing curve with a large enough effect in the repeat runs; inconclusive = weak or mixed curves, or effect the other way; inactive = flat fitted curve, though single readings scatter.
observed property: outcome

Below: 5 molecules and their reported outcome.
molecule=ClC(Cl)(Cl)c1ccccc1 measurement=inactive
molecule=Oc1ccc(Cl)cc1Cl measurement=inactive
molecule=CN(C)c1nc(=O)n(C2CCCCC2)c(=O)n1C measurement=inactive
molecule=CC[n+]1c(-c2ccccc2)c2cc(N)ccc2c2ccc(N)cc21 measurement=inactive
molecule=O=[N+]([O-])c1ccc(Nc2ccccc2)cc1 measurement=inactive

// batch mode: one outcome value per listed entry
1. CCC1(c2ccc(N)cc2)CCC(=O)NC1=O (stereo not given)
2. C[N+](C)(C)CC(=O)O

["inactive", "inactive"]

# return outcome for each item in the list
1. O=NN1CCOCC1
2. CCCCOCC1CO1 (stereo not given)
3. CCOC(=O)c1ccccc1N
4. COP(=S)(OC)Oc1ccc(S(=O)(=O)N(C)C)cc1
5. CC(C)CON=O
6. CCN(CC)C(=O)C(C)Oc1cccc2ccccc12 (stereo not given)
7. CC(C)(c1ccccc1)c1ccc(O)cc1

["inactive", "inactive", "inactive", "inactive", "inactive", "inactive", "inactive"]

Dear colleague, I am looking for the recorded outcome of the following molecule: CCCCCCCCCC(CC)c1ccc(S(=O)(=O)O)cc1 (stereo not given) inactive

====

Assay: qHTS RealTime-Glo MT Cell Viability Assay in HepG2 cells - 32 hour (AID 1224877); note: nearly all actives have a fitted effect of over 55% in size
Conditions: RealTime-Glo luminescence; series mostly up to 76.8 µM
Inconclusive results are not listed. Calls of active or inactive are those of the source. Calls follow the shape of the dose curve; as a rule, active = well fitted cell-killing curve with a large enough effect in the repeat runs; inconclusive = weak or mixed curves; inactive = flat fitted curve, though single readings scatter.
observed property: outcome

Guide cases for outcome, answers given:
compound="CC(C)=CC1C(C(=O)OCN2C(=O)C3=C(CCCC3)C2=O)C1(C)C (stereo not given)" observed_property=outcome measurement=inactive
compound=CCNc1nc(Cl)nc(NC(C)(C)C#N)n1 observed_property=outcome measurement=inactive
compound=COc1ccc(C=O)cc1OC observed_property=outcome measurement=inactive
compound=O=C(O)CF observed_property=outcome measurement=inactive
compound=O=P(OCCCl)(OCCCl)OCCCl observed_property=outcome measurement=inactive

Batch of 3 compounds: report outcome for each.
1. CC(C)CON=O
2. N#Cc1nn(-c2c(Cl)cc(C(F)(F)F)cc2Cl)c(N)c1S(=O)C(F)(F)F (stereo not given)
3. CC(O)CN(CC(C)O)CC(C)O (stereo not given)

1: inactive; 2: inactive; 3: inactive

====

Biological target: Estrogen receptor (Homo sapiens) (UniProt P03372)
Sequence (P03372 whole entry, looked up): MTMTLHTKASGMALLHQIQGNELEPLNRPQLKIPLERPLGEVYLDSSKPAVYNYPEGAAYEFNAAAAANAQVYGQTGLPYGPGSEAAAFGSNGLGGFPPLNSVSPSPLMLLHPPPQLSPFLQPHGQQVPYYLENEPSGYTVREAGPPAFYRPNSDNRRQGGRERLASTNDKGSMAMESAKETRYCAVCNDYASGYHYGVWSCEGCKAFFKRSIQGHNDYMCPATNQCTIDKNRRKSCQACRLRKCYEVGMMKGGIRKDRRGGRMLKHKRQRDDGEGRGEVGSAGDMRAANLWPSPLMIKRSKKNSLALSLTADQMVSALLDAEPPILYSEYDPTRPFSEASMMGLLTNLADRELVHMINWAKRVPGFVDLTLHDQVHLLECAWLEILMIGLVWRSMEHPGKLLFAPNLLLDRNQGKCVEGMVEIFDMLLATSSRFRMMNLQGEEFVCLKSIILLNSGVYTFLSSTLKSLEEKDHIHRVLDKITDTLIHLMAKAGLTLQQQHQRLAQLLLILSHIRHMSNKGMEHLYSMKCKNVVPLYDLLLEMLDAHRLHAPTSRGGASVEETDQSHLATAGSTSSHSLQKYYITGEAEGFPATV
Test: qHTS assay to identify small molecule antagonists of the estrogen receptor alpha (ER-alpha) signaling pathway using the BG1 cell line in the presence of 0.1 nM 17-beta-estradiol (AID 1259244); note: nearly all actives have a fitted effect of over 50% in size
Conditions: VM7Luc4E2 (BG1) ERE-luciferase, antagonist mode, 0.1 nM E2, 22 h; series mostly up to 92.4 µM
Inconclusive results are not listed. The source made the active and inactive calls. The call rests on the fitted dose curve; in most records, active means well fitted inhibition curve with a large enough effect in the repeat runs; inconclusive means weak or mixed curves; inactive means no such curve, though single readings can be large or run the other way.
Give your call using only these classes: YES (active), NO (inactive)

Below are worked cases with known answers.
compound=Clc1ccc(C(Cl)(Cl)Cl)cc1 class_name=NO
compound=CN(C)c1nc(=O)n(C2CCCCC2)c(=O)n1C class_name=NO

Hey, what did the test say about `CCCCCCCCCc1ccc(O)cc1` ? NO

Which outcome was entered for the compound `O=NN(c1ccccc1)c1ccccc1` in this test? NO

Dear colleague, could you share the recorded outcome for `CSc1nc(NC(C)C)nc(NC(C)C)n1` when you have a moment? NO

For this compound, state the assay outcome: CC(C)=CC1C(C(=O)OCc2cccc(Oc3ccccc3)c2)C1(C)C (stereo not given) NO

Returns: the outcome recorded for `CNC(=S)S` in this assay. NO

Recorded test outcome, item `CC(C)CON=O` NO

Recorded test call requested for `CC(C)(c1ccccc1)c1ccc(O)cc1` YES

====

Experiment: qHTS assay to identify small molecule antagonists of the estrogen related receptor signaling pathway with the pleiotropic PPARgamma coactivator (PGC) from Tox21 10K library (AID 1224841); note: actives are mostly falling curves and most rising ones were filed inactive; nearly all actives have a fitted effect of over 50% in size
Conditions: PGC/ERR reporter cell line, ONE-Glo luciferase, 18 h; series mostly up to 92.4 µM
Results filed as inconclusive are left out. Active and inactive are the calls of the source. How the calls were made is not given here.
In this exercise, the only acceptable responses are active, inactive

molecule="CCCCOCC1CO1 (configuration not stated)" class_name=inactive
molecule=CCCCOC(=O)COC(=O)c1ccccc1C(=O)OCCCC class_name=inactive
molecule=c1ccc2c(c1)Nc1ccccc1S2 class_name=inactive
molecule=Oc1ccc(Cl)cc1Cl class_name=inactive
molecule="CC1(C)C(C(=O)OC(C#N)c2cccc(Oc3ccccc3)c2)C1(C)C (configuration not stated)" class_name=active
molecule=CNC(=O)Oc1cccc2c1OC(C)(C)C2 class_name=inactive

Per the assay record, what outcome was assigned to `CC(C)(O)C(=O)Nc1ccc([N+](=O)[O-])c(C(F)(F)F)c1` ? active

Which outcome did this test record for the molecule `COP(=S)(OC)SCn1nnc2ccccc2c1=O` ? active

Could you kindly confirm the outcome this assay logged for `COP(=S)(OC)Oc1ccc(S(=O)(=O)N(C)C)cc1` ? inactive
